System: NCI-H522 lung
Assay: NCI-60 one-dose screen, 48 h (100 = growth as untreated, 0 = no growth, -100 = all killed)
Conditions: 10 µM
This is part of a sample that, as a whole, favours compounds with a hit. Of some 83,000 tested, about 20% had one in any assay. The source made the active and inactive calls. How the source made its calls: active means growth percent below 10; inactive means the rest.
Property: growth

Item under review: `O=C(O)CCC(=O)OC[C@@H](NC(=O)C(Cl)Cl)[C@H](O)c1ccc([N+](=O)[O-])cc1` . Reported growth? 91.7% (inactive)

c1ccc2nc(N/N=C3\CCCCC3C3CCCCC3)ccc2c1 (stereo not drawn) , same question. 60% (inactive)

Would you mind doing `Cc1onc(-c2ccccc2Cl)c1C(=O)N[C@@H]1C(=O)N2[C@@H]1SC(C)(C)[C@@H]2C(=O)O` as well? 96.1% (inactive)

Next up: `C[C@]12CC[C@H](O)CC1=CC[C@@H]1[C@@H]2CC[C@]2(C)C(c3cccnc3)=CC[C@@H]12` 35.7% (inactive)

How about `COc1ccc2c(c1)[n+](=O)c(/C=C/C(=O)c1cc(OC)c(OC)c(OC)c1)c(C)n2[O-]` ? -60.1% (active)

What about `CCOC(=O)CCC(=O)O[C@H]1[C@H](O[C@@H]2[C@@H](C)[C@H](O[C@H]3C[C@@](C)(OC)[C@@H](O)[C@H](C)O3)[C@@H](C)C(=O)O[C@H](CC)[C@@](C)(O)[C@H](O)[C@@H](C)C(=O)[C@H](C)C[C@@]2(C)O)O[C@H](C)C[C@@H]1N(C)C` ? 92.6% (inactive)

Next: `CCSc1ncc(Br)c(Sc2nc(N)nc3nc[nH]c23)n1` 59% (inactive)

// query: `O=C(CNc1ccc2c(c1)C(=O)c1ccccc1C2=O)Nc1ccc2c(c1)C(=O)c1ccccc1C2=O` -96.2% (active)
